test: soluble on expression in E. coli; label from the status in PepcDB or PDB records

| sequence_input | soluble on expression in E. coli |
| --- | --- |
| PLPIPPPPPDIQPLERYWAAHQQLRETDIPQLSQASRLSTQQVLDWFDSRLPQPAEV | soluble |
| MEEVYASELRGREPETVDTLFLDNTQGGVIGGINEKLTKLELLSMVKCGLTTLKGMPVLPALNYLDLSDNELGDDASFDVLIKCAPEIKKITLSGNRLTLDNVRTLKMLPNLMELDLSNNSSLGLLDDYRVKMFEMIPSLKILDGCDVDGEEVEEEFAAGEGAEDSDEGDSDEDGPGLSYLNKSQFSDDETDDYVVPEAGDAETRGAKRAASADCDEPEAKKSAE | soluble |
